Hey, just so you know, these numbers are from patent US20210246204A1.

- assayed_system: T1, histidine-tagged human Siglec-7 (NovoProtein) (human, UniProt Q9Y286 19-353)
- T1 construct: Bought protein; also called recombinant human Siglec-7; recombinant Siglec-7; not shown: histidine tag
- T1 sequence (Q9Y286 19-353 limits assumed): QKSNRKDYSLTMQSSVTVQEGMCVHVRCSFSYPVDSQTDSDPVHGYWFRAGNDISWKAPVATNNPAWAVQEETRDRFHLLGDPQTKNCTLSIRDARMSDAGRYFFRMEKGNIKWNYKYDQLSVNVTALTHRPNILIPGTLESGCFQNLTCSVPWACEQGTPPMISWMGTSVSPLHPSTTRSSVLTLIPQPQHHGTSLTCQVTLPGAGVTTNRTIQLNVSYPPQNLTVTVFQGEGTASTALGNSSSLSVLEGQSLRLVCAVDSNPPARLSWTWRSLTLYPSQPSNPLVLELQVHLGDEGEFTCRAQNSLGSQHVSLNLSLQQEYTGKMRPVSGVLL
- measurement_description: BLI, antibody captured
- Experimental: In this assay, the humanized antibodies were compared directly to S7AB. Briefly, the antibodies were captured on anti-human or anti-mouse IgG Fc Biosensors (Pall ForteBio). […] Apparent affinity constants (KD) were calculated from the ratio kd/kₐ. The affinities of S7AB-H8 and variants S7AB-H8.1 through S7AB-H8.45 for human Siglec-7 were measured by BioLayer Interferometry according to the method described in Example 1 above.
value_kind: kon (M⁻¹ s⁻¹)
Answers are plain numbers, in M⁻¹ s⁻¹.

{"binder": "S7AB-H8.43 (antibody, V domains shown, also called S7AB-H.43) VH: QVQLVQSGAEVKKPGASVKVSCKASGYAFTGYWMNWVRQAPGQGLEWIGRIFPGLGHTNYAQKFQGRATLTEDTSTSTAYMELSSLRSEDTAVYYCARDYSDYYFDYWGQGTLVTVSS VL: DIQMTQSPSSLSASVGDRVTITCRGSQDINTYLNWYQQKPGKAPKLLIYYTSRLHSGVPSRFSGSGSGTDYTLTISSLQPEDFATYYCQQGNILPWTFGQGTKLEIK", "kon, M⁻¹ s⁻¹": 228000}

Indicate the recorded kon value for this binder: S7AB-H8.39 (antibody, V domains shown) VH: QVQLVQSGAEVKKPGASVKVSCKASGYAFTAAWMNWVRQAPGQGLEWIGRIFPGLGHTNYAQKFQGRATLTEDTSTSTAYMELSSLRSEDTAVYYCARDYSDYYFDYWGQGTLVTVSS VL: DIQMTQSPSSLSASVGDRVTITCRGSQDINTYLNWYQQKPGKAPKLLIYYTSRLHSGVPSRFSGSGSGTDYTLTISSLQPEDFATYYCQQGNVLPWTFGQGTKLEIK
166000
